Task for the reader: assign each of the following compounds its reported IC50.
Tested on: Du145
PROTOCOL NOTES: Cytotoxicity assay (cell titer-glo and calcein AM), Du145
CONDITION DESCRIPTION: read-out: Cytotoxicity IC50, Du145, calcein; Du145; calcein AM readout; % error in parentheses

Output reported IC50 of the compound COc1cc2c(c(OC)c1OC)-c1ccc(OC)c(=O)cc1[C@@H](NC(=O)CN(OC)[C@@H]1O[C@H](CF)[C@@H](O)[C@H](O)[C@H]1O)CC2 [Col54, 6-deoxy-6-fluoro-D-glucoside] on Du145.
> 10 µM

Output reported IC50 of the compound COc1cc2c(c(OC)c1OC)-c1ccc(OC)c(=O)cc1[C@@H](NC(=O)CN(OC)[C@@H]1O[C@H](C)[C@@H](O)[C@H](O)[C@H]1O)CC2 [Col2, 6-deoxy-D-glucoside] on Du145.
> 7.79 µM

Output reported IC50 of the compound COc1cc2c(c(OC)c1OC)-c1ccc(OC)c(=O)cc1[C@@H](NC(=O)CN(OC)[C@@H]1O[C@H](CO)[C@H](O)[C@H](O)[C@H]1NC(C)=O)CC2 [Col28, N-acetyl-D-galactosaminoside] on Du145.
> 10 µM

Output reported IC50 of the compound COc1cc2c(c(OC)c1OC)-c1ccc(OC)c(=O)cc1[C@@H](NC(=O)CN(OC)[C@@H]1O[C@H](C)[C@H](O)[C@H](O)[C@H]1O)CC2 [Col9, D-fucoside] on Du145.
> 9.14 µM

Output reported IC50 of the compound COc1cc2c(c(OC)c1OC)-c1ccc(OC)c(=O)cc1[C@@H](NC(=O)CN(OC)[C@@H]1O[C@H](CO)[C@@H](N=[N+]=[N-])[C@H](O)[C@H]1O)CC2 [Col44, 4-deoxy-4-azido-D-glucoside] on Du145.
> 1 µM

Output reported IC50 of the compound COc1cc2c(c(OC)c1OC)-c1ccc(OC)c(=O)cc1[C@@H](NC(=O)CN(OC)[C@@H]1O[C@H](CO)[C@@H](O[C@H]3O[C@H](CO)[C@@H](O[C@H]4O[C@H](CO)[C@@H](O)[C@H](O)[C@H]4O)[C@H](O)[C@H]3O)[C@H](O)[C@H]1O)CC2 [Col13, maltotrioside] on Du145.
> 10 µM

---

Tested on: NCI-H460
PROTOCOL NOTES: Cytotoxicity assay (cell titer-glo and calcein AM), NCI-H460
CONDITION DESCRIPTION: read-out: Cytotoxicity IC50, NCI-H460, calcein; NCI-H460; calcein AM readout; % error in parentheses
pIC50: −log10 of the molar value.
MEASURED METRIC: pIC50

Output reported pIC50 of the compound COc1cc2c(c(OC)c1OC)-c1ccc(OC)c(=O)cc1[C@@H](NC(=O)CN(OC)[C@@H]1O[C@H](CBr)[C@H](O)[C@H](O)[C@H]1O)CC2 [Col42, 6-deoxy-6-bromo-D-galactoside] on NCI-H460.
< 5.00

Output reported pIC50 of the compound COc1cc2c(c(OC)c1OC)-c1ccc(OC)c(=O)cc1[C@@H](NC(=O)CN(OC)[C@@H]1O[C@H](C)[C@H](O)[C@H](O)[C@H]1O)CC2 [Col9, D-fucoside] on NCI-H460.
< 5.00

Output reported pIC50 of the compound COc1cc2c(c(OC)c1OC)-c1ccc(OC)c(=O)cc1[C@@H](NC(=O)CN(OC)[C@@H]1O[C@H](CO)[C@@H](N=[N+]=[N-])[C@H](O)[C@H]1O)CC2 [Col44, 4-deoxy-4-azido-D-glucoside] on NCI-H460.
< 6.00

---

Task for the reader: assign each of the following compounds its reported IC50.
Tested on: Du145
PROTOCOL NOTES: Cytotoxicity assay (cell titer-glo and calcein AM), Du145
CONDITION DESCRIPTION: read-out: Cytotoxicity IC50, Du145, calcein; Du145; calcein AM readout; % error in parentheses

Give IC50 for the following compound: COc1cc2c(c(OC)c1OC)-c1ccc(OC)c(=O)cc1C(NC(=O)CN(OC)C1OCC(O)C(O)C1O)CC2 [Col22, L-riboside]
> 10 µM

Give IC50 for the following compound: COc1cc2c(c(OC)c1OC)-c1ccc(OC)c(=O)cc1C(NC(=O)CN(OC)C1OCC(O)C(O)C1O)CC2 [Col17, L-xyloside]
> 10 µM

Give IC50 for the following compound: COc1cc2c(c(OC)c1OC)-c1ccc(OC)c(=O)cc1C(NC(=O)CN(OC)C1OC(C)C(O)C(O)C1O)CC2 [Col14, L-fucoside]
> 10 µM

---

Test system: Hep3B
PROTOCOL NOTES: Cytotoxicity assay (cell titer-glo and calcein AM), Hep3B
CONDITION DESCRIPTION: read-out: Cytotoxicity IC50, Hep 3B, calcein; Hep 3B; calcein AM readout; % error in parentheses
MEASURED METRIC: IC50

Output reported IC50 of the compound COc1cc2c(c(OC)c1OC)-c1ccc(OC)c(=O)cc1C(NC(=O)CN(OC)C1OCC(O)C(O)C1O)CC2 [Col17, L-xyloside] on Hep3B.
> 10 µM

Output reported IC50 of the compound COc1cc2c(c(OC)c1OC)-c1ccc(OC)c(=O)cc1[C@@H](NC(=O)CN(OC)[C@@H]1O[C@H](CO)[C@@H](O[C@H]3O[C@H](CO)[C@@H](O[C@H]4O[C@H](CO)[C@@H](O)[C@H](O)[C@H]4O)[C@H](O)[C@H]3O)[C@H](O)[C@H]1O)CC2 [Col13, maltotrioside] on Hep3B.
> 10 µM

Output reported IC50 of the compound COc1cc2c(c(OC)c1OC)-c1ccc(OC)c(=O)cc1[C@@H](NC(=O)CN(OC)[C@@H]1O[C@H](CBr)[C@H](O)[C@H](O)[C@H]1O)CC2 [Col42, 6-deoxy-6-bromo-D-galactoside] on Hep3B.
> 10 µM

Output reported IC50 of the compound COc1cc2c(c(OC)c1OC)-c1ccc(OC)c(=O)cc1[C@@H](NC(=O)CN(OC)[C@@H]1OC[C@@H](O)[C@H](O)[C@H]1O)CC2 [Col4, D-xyloside] on Hep3B.
> 3.35 µM

---

System: ADR-RES
PROTOCOL NOTES: Cytotoxicity assay (cell titer-glo and calcein AM), ADR-RES
CONDITION DESCRIPTION: read-out: Cytotoxicity IC50, NCI/ADR RES, CTG; NCI/ADR RES; CTG (cell titer-glo) readout; % error in parentheses
pIC50: −log10 of the molar value.
Task for the reader: assign each of the following molecules its reported pIC50.

Give pIC50 for the following molecule: COc1cc2c(c(OC)c1OC)-c1ccc(OC)c(=O)cc1[C@@H](NC(=O)CN(OC)[C@@H]1O[C@H](CO)[C@@H](O)[C@H](F)[C@H]1O)CC2 [Col33, 3-fluoro-3-deoxy-D-glucoside]
< 5.00

Give pIC50 for the following molecule: COc1cc2c(c(OC)c1OC)-c1ccc(OC)c(=O)cc1[C@@H](NC(=O)CN(OC)[C@@H]1O[C@H](CO)[C@@H](O)C[C@H]1O)CC2 [Col3, 3-deoxy-D-glucoside]
< 5.00

Give pIC50 for the following molecule: COc1cc2c(c(OC)c1OC)-c1ccc(OC)c(=O)cc1[C@@H](NC(=O)CN(OC)[C@@H]1O[C@H](CO)[C@@H](O)[C@H](O)[C@H]1F)CC2 [Col34, 2-fluoro-2-deoxy-D-glucoside]
< 6.00

---

Task for the reader: assign each of the following molecules its reported IC50.
System: Du145
PROTOCOL NOTES: Cytotoxicity assay (cell titer-glo and calcein AM), Du145
CONDITION DESCRIPTION: read-out: Cytotoxicity IC50, Du145, CTG; Du145; CTG (cell titer-glo) readout; % error in parentheses

Give IC50 for the following molecule: COc1cc2c(c(OC)c1OC)-c1ccc(OC)c(=O)cc1[C@@H](NC(=O)CN(OC)[C@@H]1O[C@H](CO)[C@@H](N=[N+]=[N-])[C@H](O)[C@H]1O)CC2 [Col44, 4-deoxy-4-azido-D-glucoside]
> 1 µM

Give IC50 for the following molecule: COc1cc2c(c(OC)c1OC)-c1ccc(OC)c(=O)cc1[C@@H](NC(=O)CN(OC)[C@@H]1O[C@H](CO)[C@@H](O)C[C@H]1O)CC2 [Col3, 3-deoxy-D-glucoside]
> 10 µM

Give IC50 for the following molecule: COc1cc2c(c(OC)c1OC)-c1ccc(OC)c(=O)cc1[C@@H](NC(=O)CN(OC)[C@@H]1O[C@H](C)[C@H](O)[C@H](O)[C@H]1O)CC2 [Col9, D-fucoside]
> 10 µM

Give IC50 for the following molecule: COc1cc2c(c(OC)c1OC)-c1ccc(OC)c(=O)cc1C(NC(=O)CN(OC)C1OCC(O)C(O)C1O)CC2 [Col7, L-lyxoside]
> 10 µM
